Molecular target: T1, LNX2_2, Q8N448
T1 sequence (Q8N448 334-432, limits assumed, looked up): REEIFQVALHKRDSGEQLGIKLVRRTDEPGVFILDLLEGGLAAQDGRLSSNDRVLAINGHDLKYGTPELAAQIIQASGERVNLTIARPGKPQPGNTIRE
Experiment: holdup assay
Set-up: key: below the threshold = too weak to quantify, mostly under pKd 3.1 to 4
Settings: plain residues with an end cap or a label only (N-terminal biotin on a linker: ahx)
readoutName: pKd

binder: EKQAKGDTEF [CACYBP, Q9HB71]
reportedValue: below the threshold
//
binder: TESNLQTSSC [CGN, Q9P2M7]
reportedValue: below the threshold
//
binder: HTHSYIETHV [CNKSR2, Q8WXI2]
reportedValue: 3.99
//
binder: TEAKLTETNA [MYO18A, Q92614]
reportedValue: below the threshold
//
binder: QNTDDVQTSF [ACE2, Q9BYF1]
reportedValue: below the threshold

Switching to the query record.
Task: Recorded pKd of QDEKVKESYV [ABCA1, O95477] , please.
Output: 3.64
